Assay: Cell viability staining with Alamar Blue (cytotoxicity CC50), Hep2
Assay type: cell-based
Conditions: human, Hep2 cells (ATCC CCL-23); R6 = F, R8 = Methoxy compounds; Hep2 ATCC CCL-23; read-out: hep2 CC50
Counter-ions that a name gives are not always drawn.
The following molecules are listed with their measured CC50 values.
METRIC: CC50

> print(dat)
                                   molecule  metric   value
1  COc1c(N2CC[C@@H](CN)C2)c(F)cc2c(=O)c3c(=O)[nH]sc3n(C3CC3)c12 [Compound 63]    CC50   11 µM
2  COc1c(N2CC[C@H](CN)C2)c(F)cc2c(=O)c3c(=O)[nH]sc3n(C3CC3)c12 [Compound 67]    CC50   11 µM
3  COc1c(N2CC[C@@H](C(C)(C)N)C2)c(F)cc2c(=O)c3c(=O)[nH]sc3n(C3CC3)c12 [Compound 53]    CC50  8.5 µM
4  CNC(C)(C)[C@@H]1CCN(c2c(F)cc3c(=O)c4c(=O)[nH]sc4n(C4CC4)c3c2OC)C1 [Compound 76]    CC50   27 µM
5  COc1c(N2CC[C@H](C(C)(C)N)C2)c(F)cc2c(=O)c3c(=O)[nH]sc3n(C3CC3)c12 [Compound 58]    CC50   61 µM
6  COc1c(N2CCC(N(C)C)C2)c(F)cc2c(=O)c3c(=O)[nH]sc3n(C3CC3)c12 (stereo not shown) [Compound 49]    CC50   68 µM
7  COc1c(N2CC3CCCNC3C2)c(F)cc2c(=O)c3c(=O)[nH]sc3n(C3CC3)c12 (stereo not shown) [Compound 45, hydrochloride]    CC50   93 µM

* * *

Test: Cell viability staining with Alamar Blue (cytotoxicity CC50), Hep2
Assay type: cell-based
Conditions: human, Hep2 cells (ATCC CCL-23); R6 = F, R8 = H compounds; Hep2 ATCC CCL-23; read-out: hep2 CC50
Counter-ions that a name gives are not always drawn.
The following compounds are listed with their measured CC50 values.
METRIC: CC50 (µM)

> print(dat)
                                   compound  value
1  CNC(C)(C)[C@@H]1CCN(c2cc3c(cc2F)c(=O)c2c(=O)[nH]sc2n3C2CC2)C1   0.57
2  NC[C@H]1CCN(c2cc3c(cc2F)c(=O)c2c(=O)[nH]sc2n3C2CC2)C1    2.3
3  O=c1[nH]sc2c1c(=O)c1cc(F)c(N3CC4CCCNC4C3)cc1n2C1CC1 (stereo not shown) [Compound 46, hydrochloride]    4.7
4  CC(C)(N)[C@H]1CCN(c2cc3c(cc2F)c(=O)c2c(=O)[nH]sc2n3C2CC2)C1    6.1

* * *

Assay: Cell viability staining with Alamar Blue (cytotoxicity CC50), Hep2
Assay type: cell-based
Details: human; R6 = F, R8 = Methoxy compounds; Hep2 ATCC CCL-23; read-out: hep2 CC50
METRIC: CC50 (µM)

> print(dat)
                                   molecule  value
1  COc1c(N2CCNCC2)c(F)cc2c(=O)c3c(=O)[nH]sc3n(C3CC3)c12 [Compound 38]     27

* * *

Assay: Cell viability staining with Alamar Blue (cytotoxicity CC50), Hep2
Assay type: cell-based
Settings: human
METRIC: CC50

> print(dat)
                                   compound      value
1  CC(C)(C)c1ccc(C(O)CCCN2CCC(C(O)(c3ccccc3)c3ccccc3)CC2)cc1 (stereo not shown) [Terfenadine, reference compound]  3 to 5 µM
